Values of IC50 for Amine oxidase [flavin-containing] A (Homo sapiens, UniProt P21397), collected from a number of published sources:
Measurement Label: IC50 (µM)

Solved entries (count: 8):
- Compound: "C/C(=N/Nc1nc(-c2ccc(F)cc2)cs1)c1ccco1"
  Value Unit: "µM"
  IC50: 5.67
- Compound: "Brc1ccc(-c2csc(N/N=C/c3ccc(N4CCOCC4)cc3)n2)cc1"
  Value Unit: "µM"
  IC50: 14.6
- Compound: "COc1ccc2oc3ccccc3c(=O)c2c1"
  Value Unit: "µM"
  IC50: 5.3
- Compound: "O=C(/C=C/c1ccc(CNC2CC2c2ccccc2)cc1)NO (stereo unspecified)"
  Value Unit: "µM"
  IC50: 39.4
- Compound: "O=C(c1cccc(CN[C@@H]2C[C@H]2c2ccc(F)c(F)c2)c1)N1CCN(c2ccc(Cl)c(Cl)c2)CC1"
  Value Unit: "µM"
  IC50: 1.23
- Compound: "N[C@@H]1C[C@H]1c1ccc(NC(=O)c2ccnc(-c3cc(C(=O)O)ccn3)c2)cc1 (relative stereo)"
  Value Unit: "µM"
  IC50: 35.4
- Compound: "N[C@@]1(c2ccccc2)C[C@@H]1c1ccccc1"
  Value Unit: "µM"
  IC50: 0.094
- Compound: "O=C1/C(=C/c2ccc(OCCCN3CCCCC3)cc2)Cc2cc(F)ccc21"
  Value Unit: "µM"
  IC50: 9.18

P: Cc1c2c(nn1-c1ccc(/C=N/NC(=S)Nc3ccccc3Cl)cc1)-c1ccccc1S(=O)(=O)N2C
Q: O=Cc1cccc(OCc2ccccc2)c1
From the recorded data, which exceeds the other in IC50: P or Q ? Response format: the label of the selected entry.
Q
